All figures here come from paper PMC9655717.

tested on: Staphylococcus aureus (ATCC 13709)
RECORDED_ENDPOINT: MIC (µg/mL)
Your answer is read as µg/mL, so omit the unit and give the number.

COMPOUND | TARGET_DESC | MIC / µg/mL
CC(C)C1=CC23CCC4C(C)(C(=O)O)CCCC4(C)C2CC1c1c(OCCC#N)ccc(OCCC#N)c13 (stereo not shown) [Compound 50] | Staphylococcus aureus (ATCC 13709) | 64

Turning to the following compound.
Prompt line: # lookup: Staphylococcus aureus (ATCC 13709) MIC, key = C#CCOC(=O)C1(C)CCCC2(C)C1CCC13C=C(C(C)C)C(CC12)C1=C3C(=O)C=CC1=O (stereo not shown) [Compound 48]
Response line: 64

###

Each entry below carries its reported IC50.
target: yeast α-GLy (α-glucosidase, Sigma G0660) (Saccharomyces cerevisiae, UniProt P53341); construct: purchased Sigma G0660; experiment: biochemical; format: biochemical; settings: IC50 ± SE, α-glucosidase inhibition, yeast α-glucosidase, 37°C, pH 6.8
Sequence (P53341 whole entry): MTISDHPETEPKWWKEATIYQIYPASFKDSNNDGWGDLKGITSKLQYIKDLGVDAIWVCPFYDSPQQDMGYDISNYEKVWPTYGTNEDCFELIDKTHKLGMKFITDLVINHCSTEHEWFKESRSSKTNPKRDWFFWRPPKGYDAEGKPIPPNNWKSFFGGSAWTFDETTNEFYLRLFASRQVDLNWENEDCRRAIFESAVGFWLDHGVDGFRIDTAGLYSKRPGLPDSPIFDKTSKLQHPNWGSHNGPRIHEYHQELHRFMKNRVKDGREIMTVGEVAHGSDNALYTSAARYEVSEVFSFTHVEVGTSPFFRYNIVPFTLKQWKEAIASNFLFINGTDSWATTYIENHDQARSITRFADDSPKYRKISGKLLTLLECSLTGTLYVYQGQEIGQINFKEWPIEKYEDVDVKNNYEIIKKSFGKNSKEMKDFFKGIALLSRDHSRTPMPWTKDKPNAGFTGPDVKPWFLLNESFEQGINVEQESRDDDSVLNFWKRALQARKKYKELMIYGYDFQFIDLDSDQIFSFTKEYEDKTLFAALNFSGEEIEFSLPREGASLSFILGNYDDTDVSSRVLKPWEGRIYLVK

COMPOUND | TARGET_DESC | IC50
COC(=O)[C@]1(C)CCC[C@]2(C)[C@H]3C[C@@H]4[C@H]5[C@@H]6CC7NC(=S)NC7[C@H]5[C@@]3(CC[C@H]21)C[C@@]4(C(C)C)O6 (some centres unmarked) | yeast α-GLy (α-glucosidase, Sigma G0660) (Saccharomyces cerevisiae, UniProt P53341) | 9.66 µM
COC(=O)C(C)NC(=O)[C@]1(C)CCC[C@]2(C)[C@H]3C[C@H]4C(C(C)C)=C[C@]3(CC[C@H]21)[C@@H]1C(=O)CCC(=O)[C@@H]14 (some centres unmarked) | yeast α-GLy (α-glucosidase, Sigma G0660) (Saccharomyces cerevisiae, UniProt P53341) | > 255 µM
COC(=O)[C@]1(C)CCC[C@]2(C)[C@H]3C[C@@H]4[C@H]5[C@@H]6CCC(=NO)[C@H]5[C@@]3(CC[C@H]21)C[C@@]4(C(C)C)O6 | yeast α-GLy (α-glucosidase, Sigma G0660) (Saccharomyces cerevisiae, UniProt P53341) | > 255 µM

Prompt line: Give IC50 for COC(=O)[C@]1(C)CCC[C@]2(C)[C@H]3C[C@@H]4[C@H]5[C@@H]6CCC(=NOCCC#N)[C@H]5[C@@]3(CC[C@H]21)C[C@@]4(C(C)C)O6
Response line: > 255 µM

Prompt line: Give IC50 for COC(=O)[C@]1(C)CCC[C@]2(C)[C@H]3C[C@H]4C(C(C)C)=C[C@]3(CC[C@H]21)[C@@H]1C(=O)CC[C@H](OC(=O)CCC(=O)O)[C@@H]14
Response line: > 255 µM

###

target: yeast α-GLy (α-glucosidase, Sigma G0660) (Saccharomyces cerevisiae, UniProt P53341); construct: purchased Sigma G0660; assay: biochemical; format: biochemical; conditions: IC50 ± SE, α-glucosidase inhibition, yeast α-glucosidase, 37°C, pH 6.8
RECORDED_ENDPOINT: IC50 (µM)
Your answer is read as µM, so omit the unit and give the number.

Reference set, count: 4
COMPOUND | MEASUREMENT_UNITS | ASSAY_VALUE
COC(=O)[C@]1(C)CCC[C@]2(C)[C@H]3C[C@@H]4[C@H]5[C@@H]6Cc7c([nH]c8ccccc78)[C@H]5[C@@]3(CC[C@H]21)C[C@@]4(C(C)C)O6 | µM | 66
COC(=O)[C@]1(C)CCC[C@]2(C)[C@H]3C[C@@H]4[C@H]5[C@@H]6CCC(=O)N[C@H]5[C@@]3(CC[C@H]21)C[C@@]4(C(C)C)O6 | µM | 44.8
Cc1[nH]c2c3c(c(O)cc2c1C#N)[C@H]1C[C@@H]2[C@@]4(C)CCC[C@@](C)(C(=O)O)[C@@H]4CC[C@@]32C=C1C(C)C | µM | 68.2
CCOC(=O)c1c(C)[nH]c2c3c(c(O)cc12)C1CC2C3(C=C1C(C)C)CCC1C(C)(C(=O)O)CCCC12C (centres unmarked) | µM | 2.52

Prompt line: Give IC50 for CC(C)C1=CC23CCC4C(C)(C(=O)O)CCCC4(C)C2CC1c1c(OCCC#N)ccc(OCCC#N)c13 (centres unmarked)
Response line: 0.23
